Item-by-item account of IC50
subject_of_test: human TLR7 (Homo sapiens)
Sequence (Q9NYK1 27-1049): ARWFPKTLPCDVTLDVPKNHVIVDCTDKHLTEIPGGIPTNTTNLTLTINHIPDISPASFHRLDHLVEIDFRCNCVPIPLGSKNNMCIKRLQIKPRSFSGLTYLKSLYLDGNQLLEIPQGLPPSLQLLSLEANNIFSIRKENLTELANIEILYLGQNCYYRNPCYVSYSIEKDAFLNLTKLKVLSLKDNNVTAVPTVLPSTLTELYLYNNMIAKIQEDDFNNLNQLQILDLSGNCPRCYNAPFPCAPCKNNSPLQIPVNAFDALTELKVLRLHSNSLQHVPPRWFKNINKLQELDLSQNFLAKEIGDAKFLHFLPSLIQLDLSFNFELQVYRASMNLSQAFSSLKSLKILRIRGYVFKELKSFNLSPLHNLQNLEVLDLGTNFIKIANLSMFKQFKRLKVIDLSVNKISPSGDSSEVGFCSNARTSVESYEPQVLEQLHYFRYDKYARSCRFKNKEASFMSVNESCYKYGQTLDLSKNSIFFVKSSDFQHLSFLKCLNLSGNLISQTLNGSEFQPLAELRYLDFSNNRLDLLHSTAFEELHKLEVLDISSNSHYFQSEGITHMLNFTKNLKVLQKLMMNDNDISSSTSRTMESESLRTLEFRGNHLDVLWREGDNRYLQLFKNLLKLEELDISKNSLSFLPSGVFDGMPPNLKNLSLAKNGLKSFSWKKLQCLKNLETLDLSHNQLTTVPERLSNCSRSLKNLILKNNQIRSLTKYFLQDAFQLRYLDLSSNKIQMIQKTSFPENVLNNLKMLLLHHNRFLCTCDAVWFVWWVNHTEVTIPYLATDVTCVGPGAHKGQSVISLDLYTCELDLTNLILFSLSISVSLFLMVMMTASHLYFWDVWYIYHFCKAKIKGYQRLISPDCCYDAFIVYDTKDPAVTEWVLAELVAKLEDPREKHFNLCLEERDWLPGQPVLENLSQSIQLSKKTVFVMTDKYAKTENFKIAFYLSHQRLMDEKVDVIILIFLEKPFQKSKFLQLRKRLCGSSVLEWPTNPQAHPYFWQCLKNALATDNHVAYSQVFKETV
experiment_summary: TLR7 inhibition reporter assay (HEK-Blue cells, SEAP reporter, gardiquimod stimulation)
measurement_setup: HEK-Blue cells overexpressing human TLR7, SEAP reporter, gardiquimod 7.5 μM

Example results:
Summary for this molecule, CC(C)c1c(-c2cnc3c(cnn3C)c2)[nH]c2ccc(C3CCN(CC(C)(C)O)CC3)cc12 [Example 764] : IC50 is < 100 nM

Summary for this molecule, CC(C)c1c(-c2cc(C(F)(F)F)c3nccn3c2)[nH]c2ccc(C3CCN(C(=O)CN(C)C)CC3)cc12 [Example 507] : IC50 is < 100 nM

Summary for this molecule, COc1ncc(CN2CCC(c3ccc4[nH]c(-c5ccnc6[nH]ncc56)c(C(C)C)c4c3)CC2)cn1 [Example 909] : IC50 is < 100 nM

Summary for this molecule, CCc1c(-c2ccnc3[nH]cc(Cl)c23)[nH]c2ccc(C3CCNCC3)cc12 [Example 39] : IC50 is 100 to 1000 nM

Summary for this molecule, Cc1cc2nnnn2cc1-c1[nH]c2ccc(C3CCN(C4COC4)CC3)cc2c1C(C)C [Example 742] : IC50 is < 100 nM

Summary for this molecule, Cc1cc(-c2[nH]c3ccc(C4CCN(CCS(C)(=O)=O)CC4)cc3c2C(C)C)cn2nncc12 [Example 785] : IC50 is 1000 to 50000 nM

More entries:
Summary for this molecule, Cc1cn2cc(-c3[nH]c4ccc(C5CCN(C(=O)CN(C)C)CC5)cc4c3C(C)C)cc(C)c2n1 [Example 509] : IC50 is < 100 nM

Summary for this molecule, Cc1cc(-c2[nH]c3ccc(C4CCNCC4)cc3c2C(C)C)nn2ncnc12 [Example 30] : IC50 is < 100 nM
